biological target: T1, EDIII-DV3 (E protein domain III of dengue virus serotype DV-3) (dengue virus serotype DV-3, UniProt P27915 571-678)
T1 construct: also called DENV-3; EDIII of DV-3
T1 sequence (P27915 571-678, tags left off): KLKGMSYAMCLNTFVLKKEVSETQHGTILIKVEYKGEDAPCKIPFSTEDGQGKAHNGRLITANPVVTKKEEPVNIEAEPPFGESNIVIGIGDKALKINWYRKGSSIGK
MEASURED PARAMETER: Kd (nM)
# number only, unit nM dropped from output

| BINDER | Kd, nM |
| --- | --- |
| A68 (A48 + A98V) (antibody, V domains shown) VH: QVQLVQSGAEVKKPGASVKVSCKASGFNIKDTYMSWVRQAPEQGLEWMGRIDPENGDTKYDPKLQGRVTMTADTSTNTAYMELRSLRSDDTAVYYCVRGWEGFAYWGQGTLVTVSS VL: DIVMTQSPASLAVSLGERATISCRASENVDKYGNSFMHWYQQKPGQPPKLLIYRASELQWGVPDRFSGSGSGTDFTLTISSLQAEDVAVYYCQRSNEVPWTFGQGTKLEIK | 3 |

Now, please, on to the next binder.
Q. Entry under review: antibody A11 (antibody, V domains shown, also called mAb A11; 4E5A) VH: VKLLEQSGAELVKPGASVRLSCTASGFNIKDTYMSWVKQRPEQGLEWIGRIDPENGDTKYDPKFQGKATITADTSSNTAYLHLSSLTSGDTAVYYCSRGWEGFAYWGQGTLVTVSA VL: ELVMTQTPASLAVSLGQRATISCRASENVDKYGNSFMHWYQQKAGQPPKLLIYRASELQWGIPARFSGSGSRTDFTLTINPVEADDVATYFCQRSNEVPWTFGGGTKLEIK . Reported Kd?
A. 18

// data source = patent US20240425569A1
